The measured values listed here are drawn from patent US20250154288A1.

Some molecules, each annotated with its measured EC50.
biological target: CHOK1 cells engineered to overexpress human CCR2 (Homo sapiens, UniProt P41597); construct: expressed in transfected cells; host or cells: CHOK1; assay: Antibody Dependent Cellular Cytotoxicity (ADCC) Reporter Assay; assay type: cell-based; details: with anti-cotinine antibody (human IgG1 Fc, S239D/I332E); Jurkat FcγRIIIa NFAT-luciferase reporter cells; average if several runs; read-out: ADCC Reporter Assay pEC50 (converted)
Provide the reading as a plain figure in nM.

[
  {
    "molecule": "CO[C@@H]1COCC[C@@H]1N[C@@H]1CC[C@@](C(=O)N2CCc3nc(CCCCOc4cccc(C(=O)NCCOCCOCCOCCOCCOCCOCCOCCOCCOCCNC(=O)[C@H]5CC(=O)N(C)[C@@H]5c5cccnc5)c4)c(C(F)(F)F)cc3C2)(C(C)C)C1 [Example 22]",
    "measured-result": 1.58
  }
]

Could you now consider this next molecule?
Data request: Let me know recorded EC50 for CO[C@@H]1COCC[C@@H]1N[C@@H]1CC[C@@](C(=O)N2Cc3cc(C(F)(F)F)cnc3[C@H](NC(=O)CCOCCOCCOCCOCCOCCOCCOCCOCCOCCOCCOCCOCCNC(=O)[C@H]3CC(=O)N(C)[C@@H]3c3cccnc3)C2)(C(C)C)C1 [Example 23] , thanks.
Data returned: 0.398

---

Molecular target: human alpha1 nicotinic acetylcholine (nACh) receptor (Homo sapiens, UniProt P02708+Q07001)
Sequence (P02708 21-457): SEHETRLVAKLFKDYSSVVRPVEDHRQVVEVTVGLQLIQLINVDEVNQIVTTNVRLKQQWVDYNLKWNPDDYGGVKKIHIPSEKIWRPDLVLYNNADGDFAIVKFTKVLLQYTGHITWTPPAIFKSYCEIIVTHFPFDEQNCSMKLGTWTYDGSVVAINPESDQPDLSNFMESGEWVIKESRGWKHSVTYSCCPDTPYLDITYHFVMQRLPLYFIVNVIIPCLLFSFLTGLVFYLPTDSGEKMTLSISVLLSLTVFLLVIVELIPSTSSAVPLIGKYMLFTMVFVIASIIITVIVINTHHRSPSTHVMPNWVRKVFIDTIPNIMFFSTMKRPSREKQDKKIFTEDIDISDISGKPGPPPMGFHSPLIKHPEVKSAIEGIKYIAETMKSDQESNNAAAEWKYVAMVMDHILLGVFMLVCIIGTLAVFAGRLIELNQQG
Sequence (P11230 24-501 partner): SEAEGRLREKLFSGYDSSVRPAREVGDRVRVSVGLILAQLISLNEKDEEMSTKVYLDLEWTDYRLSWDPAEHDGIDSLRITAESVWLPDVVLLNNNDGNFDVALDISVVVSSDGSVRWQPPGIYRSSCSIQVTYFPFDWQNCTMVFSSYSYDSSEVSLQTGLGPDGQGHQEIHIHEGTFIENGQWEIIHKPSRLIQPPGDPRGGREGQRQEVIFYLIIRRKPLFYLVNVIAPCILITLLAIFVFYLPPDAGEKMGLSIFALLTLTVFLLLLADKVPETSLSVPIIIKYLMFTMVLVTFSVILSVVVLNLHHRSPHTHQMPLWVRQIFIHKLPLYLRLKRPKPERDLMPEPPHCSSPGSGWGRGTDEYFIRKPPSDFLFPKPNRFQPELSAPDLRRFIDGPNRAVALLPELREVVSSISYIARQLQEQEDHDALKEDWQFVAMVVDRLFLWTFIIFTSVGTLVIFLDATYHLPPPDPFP
Sequence (Q07001 22-517): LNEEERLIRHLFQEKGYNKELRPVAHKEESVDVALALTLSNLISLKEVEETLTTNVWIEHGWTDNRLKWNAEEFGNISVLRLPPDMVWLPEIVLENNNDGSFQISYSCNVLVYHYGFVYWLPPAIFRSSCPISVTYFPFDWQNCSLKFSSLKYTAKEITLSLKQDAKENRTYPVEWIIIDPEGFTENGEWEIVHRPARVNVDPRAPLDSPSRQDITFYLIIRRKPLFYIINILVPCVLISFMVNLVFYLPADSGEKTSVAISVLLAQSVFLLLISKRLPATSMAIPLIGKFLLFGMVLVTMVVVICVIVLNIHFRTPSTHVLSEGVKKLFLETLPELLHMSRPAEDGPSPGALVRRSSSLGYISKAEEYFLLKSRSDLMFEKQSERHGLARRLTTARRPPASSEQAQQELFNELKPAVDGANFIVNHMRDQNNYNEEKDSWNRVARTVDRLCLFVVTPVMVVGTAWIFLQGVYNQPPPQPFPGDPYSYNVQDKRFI
Assay: Nicotinic Acetylcholine Receptor Antagonism Assay (IONFlux automated patch clamp)
Format: cell-based
Details: maximum percentage antagonism at Maximum Concentration of Compound Tested 100 μM; read-out: Maximum Response (%)
From the text: Cells expressing human alpha1 nicotinic acetylcholine (nACh) receptor (nAChR) were washed and dissociated using Trypsin containing buffer. Cells were then washed and seeded at a density of 3-5 million cells/mL and allowed to grow for 3 days. […] The receptor was then stimulated via addition of acetylcholine (ACh) and activation of the receptor was monitored via the IONFlux automated patch clamp system. […]
Counter-ions that a name gives are not always drawn.
Entries and their Emax at 100 µM
# number only, unit % dropped from output

Example entries begin here.
[
  {
    "compound": "CO[C@H]1COCC[C@H]1N[C@H]1CC[C@@](CCCNC(=O)[C@H]2CC[C@@H](NC(=O)CCOCCOCCNC(=O)CCNC(=O)[C@H]3CC(=O)N(C)[C@@H]3c3cccnc3)CC2)(C(=O)N2CCc3ncc(C(F)(F)F)cc3C2)C1 [Example 19]",
    "units-symbol": "%",
    "measured-result": 8
  },
  {
    "compound": "CO[C@@H]1COCC[C@@H]1N[C@@H]1CC[C@](CCCNC(=O)CCOCCOCCO[C@H]2CC[C@H](OCCNC(=O)[C@H]3CC(=O)N(C)[C@@H]3c3cccnc3)CC2)(C(=O)N2CCc3ncc(C(F)(F)F)cc3C2)C1 [Example 20, Formic acid salt]",
    "units-symbol": "%",
    "measured-result": 74
  },
  {
    "compound": "CO[C@@H]1COCC[C@@H]1N(CCCNC(=O)[C@H]1CC[C@H](NC(=O)CCCO[C@H]2CC[C@H](OCCNC(=O)[C@H]3CC(=O)N(C)[C@@H]3c3cccnc3)CC2)CC1)[C@@H]1CC[C@@](C(=O)N2CCc3ncc(C(F)(F)F)cc3C2)(C(C)C)C1 [Example 13]",
    "units-symbol": "%",
    "measured-result": 37
  }
]

Data request: In one line, give reported Emax at 100 µM of the entry CO[C@@H]1COCC[C@@H]1N[C@@H]1CC[C@](CCCNC(=O)[C@H]2CC[C@@H](NC(=O)CCOCCOCCOCCNC(=O)[C@H]3CC(=O)N(C)[C@@H]3c3cccnc3)CC2)(C(=O)N2CCc3ncc(C(F)(F)F)cc3C2)C1 [Example 17, Formic acid salt] .
Data returned: 21

---

biological target: human alpha1 nicotinic acetylcholine (nACh) receptor (Homo sapiens, UniProt P02708+Q07001); experiment: Nicotinic Acetylcholine Receptor Antagonism Assay (IONFlux automated patch clamp); details: antagonism of nAChR stimulated with acetylcholine; average if several runs
pIC50: −log10 of the molar value. Counter-ions that a name gives are not always drawn.
property-measured: pIC50

Use these answered entries as a reference point.
[
  {
    "compound": "CO[C@H]1COCC[C@H]1N[C@H]1CC[C@@](CCCNC(=O)[C@H]2CC[C@@H](NC(=O)CCOCCOCCNC(=O)CCNC(=O)[C@H]3CC(=O)N(C)[C@@H]3c3cccnc3)CC2)(C(=O)N2CCc3ncc(C(F)(F)F)cc3C2)C1",
    "pIC50": "< 4.00"
  },
  {
    "compound": "CO[C@@H]1COCC[C@@H]1N[C@@H]1CC[C@](CCCCNC(=O)[C@H]2CC[C@H](NC(=O)CCCO[C@H]3CC[C@@H](OCCNC(=O)[C@H]4CC(=O)N(C)[C@@H]4c4cccnc4)CC3)CC2)(C(=O)N2CCc3ncc(C(F)(F)F)cc3C2)C1",
    "pIC50": "< 4.00"
  },
  {
    "compound": "CO[C@@H]1COCC[C@@H]1N[C@@H]1CC[C@](CCCNC(=O)[C@H]2CC[C@@H](NC(=O)CCOCCOCCOCCNC(=O)[C@H]3CC(=O)N(C)[C@@H]3c3cccnc3)CC2)(C(=O)N2CCc3ncc(C(F)(F)F)cc3C2)C1 [Example 17, Formic acid salt]",
    "pIC50": "≤ 4.00"
  },
  {
    "compound": "CO[C@@H]1COCC[C@@H]1N[C@@H]1CC[C@](CCC2CCN(C(=O)[C@H]3CC[C@H](NC(=O)CCCO[C@H]4CC[C@H](OCCNC(=O)[C@H]5CC(=O)N(C)[C@@H]5c5cccnc5)CC4)CC3)CC2)(C(=O)N2CCc3ncc(C(F)(F)F)cc3C2)C1",
    "pIC50": "< 4.00"
  },
  {
    "compound": "CO[C@@H]1COCC[C@@H]1N[C@@H]1CC[C@](CCCNC(=O)[C@H]2CC[C@@H](NC(=O)CCCO[C@H]3CC[C@H](OCCNC(=O)[C@H]4CC(=O)N(C)[C@@H]4c4cccnc4)CC3)CC2)(C(=O)N2CCc3ncc(C(F)(F)F)cc3C2)C1 [Example 6, Formic acid salt]",
    "pIC50": "< 4.00"
  }
]

Data request: Return value of pIC50 for input CO[C@@H]1COCC[C@@H]1N[C@@H]1CC[C@](CCCNC(=O)[C@H]2CC[C@@H](NC(=O)CCCC(=O)NCCCC(=O)NCCCNC(=O)[C@H]3CC(=O)N(C)[C@@H]3c3cccnc3)CC2)(C(=O)N2CCc3ncc(C(F)(F)F)cc3C2)C1 , no commentary.
Data returned: 4.15

Data request: Tell me its pIC50 given CO[C@@H]1COCC[C@@H]1N[C@@H]1CC[C@](CCCNC(=O)[C@H]2CC[C@H](NC(=O)CCCO[C@H]3CC[C@H](OCCNC(=O)[C@H]4CC(=O)N(C)[C@@H]4c4cccnc4)CC3)CC2)(C(=O)N2CCc3ncc(C(F)(F)F)cc3C2)C1 as the entry.
Data returned: < 4.00

Data request: Dear colleague, please send me the reported pIC50 for CO[C@@H]1COCC[C@@H]1N[C@@H]1CC[C@@](C(=O)N2Cc3cc(C(F)(F)F)cnc3[C@H](NC(=O)[C@H]3CC[C@H](NC(=O)CCCO[C@H]4CC[C@H](OCCNC(=O)[C@H]5CC(=O)N(C)[C@@H]5c5cccnc5)CC4)CC3)C2)(C(C)C)C1 when you can.
Data returned: < 4.00

---

Assay: Blood drug concentration analysis (LC-MS/MS) in In Vivo Depletion Assay
Conditions: human CCR2 (hCCR2) knock-in, 057 background, mouse, whole blood, hCCR2 knock-in mice, IV 0.1 mpk compound + 10 mpk anti-cotinine antibody, 48 hours post-dose, read-out: Exposure of Compound of Formula (I) 48 hours post-dose
Procedure: Human CCR2 (hCCR2) knock-in mice (057 background) were dosed intravenously with a PBS solution containing a compound of Formula (I) to measure depletion of CCR2 expressing cells in peripheral blood. Peripheral blood from IV dosed mice was also analyzed to determine PK properties of the ARM compounds of Formula (I). […] Drug concentration in blood samples was determined by an LC-MS/MS-based bioanalytical method developed at Syngene. […]
Counter-ions that a name gives are not always drawn.
property-measured: concentration at 48 h (ng/mL)
Report as a plain number; the unit ng/mL is understood.

[
  {
    "compound": "CO[C@H]1COCC[C@H]1N[C@H]1CC[C@@](CCCNC(=O)[C@H]2CC[C@@H](NC(=O)CCOCCOCCNC(=O)CCNC(=O)[C@H]3CC(=O)N(C)[C@@H]3c3cccnc3)CC2)(C(=O)N2CCc3ncc(C(F)(F)F)cc3C2)C1 [Example 19]",
    "concentration at 48 h / ng/mL": 54.2
  },
  {
    "compound": "CO[C@@H]1COCC[C@@H]1N[C@@H]1CC[C@](CCCCCNC(=O)[C@H]2CC[C@H](NC(=O)CCCO[C@H]3CC[C@H](OCCNC(=O)[C@H]4CC(=O)N(C)[C@@H]4c4cccnc4)CC3)CC2)(C(=O)N2CCc3ncc(C(F)(F)F)cc3C2)C1 [Example 9]",
    "concentration at 48 h / ng/mL": 49.8
  },
  {
    "compound": "CO[C@@H]1COCC[C@@H]1N[C@@H]1CC[C@](CCCNC(=O)[C@H]2CC[C@@H](NC(=O)CCCO[C@H]3CC[C@@H](OCCNC(=O)[C@H]4CC(=O)N(C)[C@@H]4c4cccnc4)CC3)CC2)(C(=O)N2CCc3ncc(C(F)(F)F)cc3C2)C1 [Example 4, Formic acid salt]",
    "concentration at 48 h / ng/mL": 26.6
  }
]

Data request: # return recorded concentration at 48 h for entry CO[C@@H]1COCC[C@@H]1N[C@@H]1CC[C@](COCCNC(=O)[C@H]2CC[C@H](NC(=O)CCCO[C@H]3CC[C@H](OCCNC(=O)[C@H]4CC(=O)N(C)[C@@H]4c4cccnc4)CC3)CC2)(C(=O)N2CCc3ncc(C(F)(F)F)cc3C2)C1 [Example 11]
Data returned: 85.1

Data request: # return recorded concentration at 48 h for input CO[C@@H]1COCC[C@@H]1N[C@@H]1CC[C@](CCCCNC(=O)[C@H]2CC[C@H](NC(=O)CCCO[C@H]3CC[C@H](OCCNC(=O)[C@H]4CC(=O)N(C)[C@@H]4c4cccnc4)CC3)CC2)(C(=O)N2CCc3ncc(C(F)(F)F)cc3C2)C1 [Example 7]
Data returned: 54.4

Data request: Quickly give me recorded concentration at 48 h for CO[C@@H]1COCC[C@@H]1N[C@@H]1CC[C@](CCCNC(=O)[C@H]2CC[C@@H](NC(=O)CCOCCOCCOCCNC(=O)[C@H]3CC(=O)N(C)[C@@H]3c3cccnc3)CC2)(C(=O)N2CCc3ncc(C(F)(F)F)cc3C2)C1 [Example 17, Formic acid salt]
Data returned: 28.3
